Quick reference: k2 Caspase-2 of the listed items.
# EXPERIMENTAL_SYSTEM: Caspase-2 (Homo sapiens)
# Sequence (P42575 170-333 limits assumed): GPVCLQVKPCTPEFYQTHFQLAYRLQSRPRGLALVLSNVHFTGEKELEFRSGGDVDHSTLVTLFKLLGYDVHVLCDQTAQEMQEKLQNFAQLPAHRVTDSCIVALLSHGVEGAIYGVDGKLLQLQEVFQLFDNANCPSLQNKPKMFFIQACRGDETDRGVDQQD
# Sequence (P42575 348-452 limits assumed): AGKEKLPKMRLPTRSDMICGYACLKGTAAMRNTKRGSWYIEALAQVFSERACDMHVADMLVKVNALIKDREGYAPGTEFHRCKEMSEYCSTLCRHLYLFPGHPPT
# ASSAY_INFO: Caspase-2 progress curve inhibition assay
# CONDITION_LABEL: second-order rate constant; Cbz-VDVAD-AFC substrate; Pipes buffer pH 7.2
// return numeric value only (unit: M⁻¹ s⁻¹, not printed)

{"columns": ["MOLECULE", "k2 Caspase-2 (M⁻¹ s⁻¹)"],
 "data": [
  ["CC[C@H](C)[C@H](NC(=O)OCc1ccccc1)C(=O)N[C@@H](CCC(=O)O)C(=O)N[C@H](C(=O)NN(CC(=O)O)C(=O)/C=C/C(=O)NCCc1ccccc1)[C@@H](C)O (relative stereo)", 30],
  ["CC[C@H](C)[C@H](NC(=O)OCc1ccccc1)C(=O)N[C@@H](CCC(=O)O)C(=O)N[C@H](C(=O)NN(CC(=O)O)C(=O)/C=C/C(=O)N(C)Cc1ccccc1)[C@@H](C)O (relative stereo)", 95],
  ["CC(C)C[C@H](NC(=O)OCc1ccccc1)C(=O)N[C@@H](CCC(=O)O)C(=O)N[C@H](C(=O)NN(CC(=O)O)C(=O)/C=C/C(=O)N(Cc1ccccc1)Cc1ccccc1)[C@@H](C)O (relative stereo)", 110],
  ["CC(C)C[C@H](NC(=O)OCc1ccccc1)C(=O)N[C@@H](CCC(=O)O)C(=O)N[C@H](C(=O)NN(CC(=O)O)C(=O)/C=C/C(=O)NCc1ccccc1)[C@@H](C)O (relative stereo)", 66],
  ["CC[C@H](C)[C@H](NC(=O)OCc1ccccc1)C(=O)N[C@@H](CCC(=O)O)C(=O)N[C@H](C(=O)NN(CC(=O)O)C(=O)/C=C/C(=O)OCc1ccccc1)[C@@H](C)O (relative stereo)", 110],
  ["CC(C)[C@H](NC(=O)[C@H](CCC(=O)O)NC(=O)[C@H](CC(=O)O)NC(=O)OCc1ccccc1)C(=O)NN(CC(=O)O)C(=O)/C=C/C(=O)N(C)Cc1ccccc1 (relative stereo)", 660],
  ["CC[C@H](C)[C@H](NC(=O)OCc1ccccc1)C(=O)N[C@@H](CCC(=O)O)C(=O)N[C@H](C(=O)NN(CC(=O)O)C(=O)/C=C/C(=O)NCc1ccccc1)[C@@H](C)O (relative stereo)", 15]
]}

Let us examine a further case.
Problem: k2 Caspase-2 lookup needed for CC(C)C[C@H](NC(=O)OCc1ccccc1)C(=O)N[C@@H](CCC(=O)O)C(=O)N[C@H](C(=O)NN(CC(=O)O)C(=O)/C=C/C(=O)OCc1ccccc1)[C@@H](C)O (relative stereo) , thanks.
Result: 480

* * *

// reported k2 Caspase-8 per item
# EXPERIMENTAL_SYSTEM: Caspase-8 (Homo sapiens)
# Sequence (Q14790 217-374 limits assumed): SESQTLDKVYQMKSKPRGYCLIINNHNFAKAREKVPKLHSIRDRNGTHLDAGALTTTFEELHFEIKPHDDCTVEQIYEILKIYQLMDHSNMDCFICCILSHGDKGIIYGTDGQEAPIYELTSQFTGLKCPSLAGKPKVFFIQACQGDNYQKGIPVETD
# Sequence (Q14790 385-479 limits assumed): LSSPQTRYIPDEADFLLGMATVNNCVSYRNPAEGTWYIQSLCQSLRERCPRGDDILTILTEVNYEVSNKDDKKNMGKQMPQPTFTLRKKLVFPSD
# ASSAY_INFO: Caspase-8 progress curve inhibition assay
# CONDITION_LABEL: second-order rate constant; Ac-DEVD-AMC substrate; Pipes buffer pH 7.2

{"columns": ["COMPOUND", "EXPERIMENTAL_SYSTEM", "EXPERIMENTAL_ENDPOINT", "REPORTED_RESULT"],
 "data": [
  ["CC(C)C[C@H](NC(=O)OCc1ccccc1)C(=O)N[C@@H](CCC(=O)O)C(=O)N[C@H](C(=O)NN(CC(=O)O)C(=O)/C=C/C(=O)NCCc1ccccc1)[C@@H](C)O (relative stereo) [Cbz-Leu-Glu-Thr-AAsp-CH═CH—CONHCH2CH2Ph]", "Caspase-8 (Homo sapiens)", "k2 Caspase-8", "121,000 M^−1s^−1"],
  ["CC[C@H](C)[C@H](NC(=O)OCc1ccccc1)C(=O)N[C@@H](CCC(=O)O)C(=O)N[C@H](C(=O)NN(CC(=O)O)C(=O)/C=C/C(=O)N(C)Cc1ccccc1)[C@@H](C)O (relative stereo) [Cbz-Ile-Glu-Thr-AAsp-CH═CH—CON(CH3)CH2Ph]", "Caspase-8 (Homo sapiens)", "k2 Caspase-8", "59,700 M^−1s^−1"],
  ["CC(C)C[C@H](NC(=O)OCc1ccccc1)C(=O)N[C@@H](CCC(=O)O)C(=O)N[C@H](C(=O)NN(CC(=O)O)C(=O)/C=C/C(=O)N(C)Cc1ccccc1)[C@@H](C)O (relative stereo) [Cbz-Leu-Glu-Thr-AAsp-CH═CH—CON(CH3)CH2Ph]", "Caspase-8 (Homo sapiens)", "k2 Caspase-8", "169,000 M^−1s^−1"],
  ["CC(C)[C@H](NC(=O)[C@H](CCC(=O)O)NC(=O)[C@H](CC(=O)O)NC(=O)OCc1ccccc1)C(=O)NN(CC(=O)O)C(=O)/C=C/C(=O)NCc1ccc(F)cc1 (relative stereo)", "Caspase-8 (Homo sapiens)", "k2 Caspase-8", "85,100 M^−1s^−1"],
  ["CCOC(=O)/C=C/C(=O)N(CC(=O)O)NC(=O)[C@@H](NC(=O)[C@H](CCC(=O)O)NC(=O)[C@@H](NC(=O)OCc1ccccc1)C(C)C)C(C)C (relative stereo) [Cbz-Val-Glu-Val-AAsp-CH═CH—COOEt]", "Caspase-8 (Homo sapiens)", "k2 Caspase-8", "175,800 M^−1s^−1"]
]}

Problem: Name the reported k2 Caspase-8 value associated with the compound CC(C)[C@H](NC(=O)[C@H](CCC(=O)O)NC(=O)[C@H](CC(=O)O)NC(=O)OCc1ccccc1)C(=O)NN(CC(=O)O)C(=O)C=CC(=O)N(Cc1cccc2ccccc12)Cc1cccc2ccccc12
Result: 9,460 M^−1s^−1

Problem: Which k2 Caspase-8 value belongs to CC(C)[C@H](NC(=O)[C@H](CCC(=O)O)NC(=O)[C@H](CC(=O)O)NC(=O)OCc1ccccc1)C(=O)NN(CC(=O)O)C(=O)/C=C/C(=O)OCc1ccccc1 (relative stereo) [Cbz-Asp-Glu-Val-AAsp-CH═CH—COOCH2Ph] ?
Result: 121,000 M^−1s^−1

Problem: Look at this compound and give its reported k2 Caspase-8. CC(C)[C@H](NC(=O)[C@H](CCC(=O)O)NC(=O)[C@H](CC(=O)O)NC(=O)OCc1ccccc1)C(=O)NN(CC(=O)O)C(=O)/C=C/C(=O)N(Cc1ccccc1)Cc1ccccc1 (relative stereo) [Cbz-Asp-Glu-Val-AAsp-CH═CH—CON(CH2Ph)2]
Result: 8,600 M^−1s^−1

* * *

# EXPERIMENTAL_SYSTEM: S. mansoni legumain (Schistosoma mansoni, UniProt P09841, N192C)
# Sequence (P09841 32-291 N192C): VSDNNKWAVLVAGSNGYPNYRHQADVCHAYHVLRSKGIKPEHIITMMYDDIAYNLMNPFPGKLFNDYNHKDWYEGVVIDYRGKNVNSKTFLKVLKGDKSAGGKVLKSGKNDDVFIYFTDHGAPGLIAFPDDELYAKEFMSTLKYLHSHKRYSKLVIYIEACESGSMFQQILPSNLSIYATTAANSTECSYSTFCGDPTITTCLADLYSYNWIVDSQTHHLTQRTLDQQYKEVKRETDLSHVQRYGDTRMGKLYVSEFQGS
# ASSAY_INFO: S. mansoni legumain (SmAE) inhibition assay
# Type: biochemical
# CONDITION_LABEL: S. mansoni legumain; 20 min preincubation; Cbz-Ala-Ala-Asn-AMC substrate; read-out: IC50
EXPERIMENTAL_ENDPOINT: IC50 (nM)
Field format: number, assumed nM, no unit text.

Problem: Provide value of IC50 for this record tested with S. mansoni legumain (Schistosoma mansoni, UniProt P09841, N192C): C[C@H](NC(=O)OCc1ccccc1)C(=O)N[C@@H](C)C(=O)NN(CC(N)=O)C(=O)/C=C/C(=O)N1CCCc2ccccc21 (relative stereo)
Result: 200

* * *

# EXPERIMENTAL_SYSTEM: Caspase-7 (Homo sapiens, UniProt P55210)
# Sequence (P55210 24-198 limits assumed): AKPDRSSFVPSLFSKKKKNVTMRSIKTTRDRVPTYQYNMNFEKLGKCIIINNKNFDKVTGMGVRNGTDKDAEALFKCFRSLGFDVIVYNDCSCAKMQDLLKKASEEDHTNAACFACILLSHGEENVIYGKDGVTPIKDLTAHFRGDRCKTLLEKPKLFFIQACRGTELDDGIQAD
# Sequence (P55210 207-303 limits assumed): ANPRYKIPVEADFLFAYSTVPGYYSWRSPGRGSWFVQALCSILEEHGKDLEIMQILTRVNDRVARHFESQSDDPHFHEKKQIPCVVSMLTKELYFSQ
# ASSAY_INFO: Caspase-7 progress curve inhibition assay
# CONDITION_LABEL: second-order rate constant; Ac-DEVD-AMC substrate; Pipes buffer pH 7.2
Catalogue of compounds with associated k2 Caspase-7

// below: answered compounds
{"columns": ["COMPOUND", "EXPERIMENTAL_SYSTEM", "REPORTED_RESULT"],
 "data": [
  ["CC(C)[C@H](NC(=O)[C@H](CCC(=O)O)NC(=O)[C@H](CC(=O)O)NC(=O)OCc1ccccc1)C(=O)NN(CC(=O)O)C(=O)C=CC(=O)N(Cc1cccc2ccccc12)Cc1cccc2ccccc12", "Caspase-7 (Homo sapiens, UniProt P55210)", "875,000 M^−1s^−1"],
  ["CC(C)C[C@H](NC(=O)OCc1ccccc1)C(=O)N[C@@H](CCC(=O)O)C(=O)N[C@H](C(=O)NN(CC(=O)O)C(=O)/C=C/C(=O)NCCc1ccccc1)[C@@H](C)O (relative stereo)", "Caspase-7 (Homo sapiens, UniProt P55210)", "440 M⁻¹ s⁻¹"]
]}

Problem: Any idea what k2 Caspase-7 was measured for CC(C)[C@H](NC(=O)[C@H](CCC(=O)O)NC(=O)[C@H](CC(=O)O)NC(=O)OCc1ccccc1)C(=O)NN(CC(=O)O)C(=O)/C=C/C(=O)c1ccccc1 (relative stereo) ?
Result: 10,800 M^−1s^−1

Problem: Reported k2 Caspase-7 for CCOC(=O)/C=C/C(=O)N(CC(=O)O)NC(=O)[C@@H](NC(=O)OCc1ccccc1)C(C)C (stereo in doubt) : what is it?
Result: 2,680 M^−1s^−1

Problem: Could you share which k2 Caspase-7 value was measured for CC(C)C[C@H](NC(=O)OCc1ccccc1)C(=O)N[C@@H](CCC(=O)O)C(=O)N[C@H](C(=O)NN(CC(=O)O)C(=O)/C=C/C(=O)N(Cc1ccccc1)Cc1ccccc1)[C@@H](C)O (relative stereo) ?
Result: 760 M⁻¹ s⁻¹

Problem: Fill in: k2 Caspase-7 of CC(C)[C@H](NC(=O)[C@H](CCC(=O)O)NC(=O)[C@H](CC(=O)O)NC(=O)OCc1ccccc1)C(=O)NN(CC(=O)O)C(=O)/C=C/C(=O)N(C)CCc1ccccc1 (relative stereo) is ___
Result: 172,000 M^−1s^−1

Problem: Dear colleague, I am looking for the recorded k2 Caspase-7 of the following compound: CC[C@H](C)[C@H](NC(=O)OCc1ccccc1)C(=O)N[C@@H](CCC(=O)O)C(=O)N[C@H](C(=O)NN(CC(=O)O)C(=O)/C=C/C(=O)N(Cc1ccccc1)Cc1ccccc1)[C@@H](C)O (relative stereo)
Result: 1,140 M^−1s^−1
